# experiment description: Rat in vivo pharmacokinetics study after oral administration of product A, B or C
# Design: species or system Male Sprague-Dawley (SD) rats
# applied conditions: male, Sprague-Dawley, rat, plasma, po, 10 mL·kg^−1, rats, oral product C, 10 mL·kg^−1
Mark each entry true if its AUC(0-inf) sits below 20 ng·h/mL, and false for all others.

- compound: "O=c1c(O[C@@H]2O[C@H](CO)[C@@H](O)[C@H](O)[C@H]2O)c(-c2ccc(O)cc2)oc2cc(O)cc(O)c12 [Astragalin]"
  assigned class: "true"

Identify whether the compound O=c1c(-c2ccc(O)cc2)coc2cc(O)cc(O)c12 [Genistein] records AUC(0-inf) below 20 ng·h/mL.
false

Identify whether the compound O=C(/C=C/c1ccc(O)c(O)c1)O[C@@H]1C[C@@](O)(C(=O)O)C[C@@H](O)[C@@H]1O [Neochlorogenic acid] records AUC(0-inf) below 20 ng·h/mL.
false

Identify whether the compound O=C(/C=C/c1ccc(O)c(O)c1)O[C@H]1[C@H](O)C[C@](O)(C(=O)O)C[C@H]1O [Cryptochlorogenic acid] records AUC(0-inf) below 20 ng·h/mL.
false

Identify whether the compound O=c1c(O[C@@H]2O[C@H](CO)[C@H](O)[C@H](O)[C@H]2O)c(-c2ccc(O)c(O)c2)oc2cc(O)cc(O)c12 [Hyperoside] records AUC(0-inf) below 20 ng·h/mL.
false

Identify whether the compound COC(=O)C1=CO[C@@H](O[C@@H]2O[C@H](CO)[C@@H](O)[C@H](O)[C@H]2O)[C@@H]2[C@@H](C)[C@@H](O)C[C@H]12 [Loganin] records AUC(0-inf) below 20 ng·h/mL.
false

Identify whether the compound O=c1cc(-c2ccc(O)c(O)c2)oc2cc(O[C@@H]3O[C@H](CO)[C@@H](O)[C@H](O)[C@H]3O)cc(O)c12 [Luteoloside] records AUC(0-inf) below 20 ng·h/mL.
true

Identify whether the compound C[C@@H]1O[C@@H](OC[C@H]2O[C@@H](Oc3c(-c4ccc(O)c(O)c4)oc4cc(O)cc(O)c4c3=O)[C@H](O)[C@@H](O)[C@@H]2O)[C@H](O)[C@H](O)[C@H]1O [Rutin] records AUC(0-inf) below 20 ng·h/mL.
false

Identify whether the compound O=c1cc(-c2ccc(O)c(O)c2)oc2cc(O)cc(O)c12 [Luteolin] records AUC(0-inf) below 20 ng·h/mL.
false

Identify whether the compound COc1cc(C[C@H]2C(=O)OC[C@@H]2Cc2ccc(OC)c(OC)c2)ccc1O [Arctigenin] records AUC(0-inf) below 20 ng·h/mL.
true

Values compiled from paper PMC4183595.
